For each of the compounds below, state its selectivity ratio.
test: Selectivity ratio of IC50 for mouse NIH/3T3 cells to IC50 for trypomastigote form of Trypanosoma cruzi Tulahuen; type: ADME, cell-based; conditions: read-out: Ratio IC50
# print the numeric value only

Prompt: Query: selectivity ratio; subject: COc1cc2c(cc1OC)CN(C(=O)C1CCCN(Cc3ccccc3)C1)CC2 (configuration not stated)
Response: 69.1

Prompt: Thanks! And COc1ccc(CCN(C)C(=O)C2CCCN(Cc3ccccc3)C2)cc1OC (configuration not stated) ?
Response: 33.6

Prompt: Thanks! And CN(Cc1ccccc1)C(=O)C1CCCN(Cc2ccccc2C(F)(F)F)C1 (configuration not stated) ?
Response: 3.98

Prompt: Thanks! And COc1ccc(CN2CCCC(C(=O)N3CCc4ccccc4C3)C2)cc1OC (configuration not stated) ?
Response: 11.8

Prompt: Thanks! And CN(Cc1ccccc1)C(=O)C1CCCN(Cc2cccc(Cl)c2)C1 (configuration not stated) ?
Response: 123

Prompt: Thanks! And COc1ccccc1CN1CCCC(C(=O)N(C)Cc2ccccc2)C1 (configuration not stated) ?
Response: 7.16

Prompt: Thanks! And COc1ccc(CCN(C)C(=O)C2CCCN(Cc3ccc(F)cc3)C2)cc1OC (configuration not stated) ?
Response: 14.9

Prompt: Thanks! And CN(Cc1ccccc1)C(=O)C1CCCN(Cc2ccc(Br)cc2)C1 (configuration not stated) ?
Response: 24.6

Prompt: Thanks! And CN(Cc1ccccc1)C(=O)C1CCCN(Cc2ccc([N+](=O)[O-])cc2)C1 (configuration not stated) ?
Response: 6.68

Prompt: Thanks! And COc1ccc(C(=O)C2CCCN(CCc3ccccc3)C2)cc1OC (configuration not stated) ?
Response: 37.7

Prompt: Thanks! And CCN(CC)C(=O)C1CCCN(Cc2cccc(Cl)c2)C1 (configuration not stated) ?
Response: 16.6

---

test system: Trypanosoma cruzi; assay: Antitrypanosomal activity against trypomastigote form of Trypanosoma cruzi Tulahuen expressing beta-galactosidase infected in mouse NIH/3T3 cells assessed as inhibition of parasite replication after 4 days by betagalactosidase-based luminescence assay; format: functional, organism-based; settings: NIH3T3, 96 h
For each of the compounds below, state its IC50.
// units = nM; emit number, no label

Prompt: Query: IC50; subject: CCCn1cc(CN2CCCC(C(=O)c3cccc(C(F)(F)F)c3)C2)cn1 (centres undefined)
Response: 250

Prompt: Thanks! And COc1ccc(CCN(C)C(=O)C2CCCN(Cc3ccc(OC)c(OC)c3)C2)cc1OC (centres undefined) ?
Response: 109

Prompt: Thanks! And COc1ccc(CN2CCCC(C(=O)N3CCCC3)C2)c(OC)c1OC (centres undefined) ?
Response: 1010

Prompt: Thanks! And CCN(CC)C(=O)C1CCCN(Cc2cccc(Cl)c2)C1 (centres undefined) ?
Response: 9910

---

system: Trypanosoma cruzi; assay: Antitrypanosomal activity against trypomastigote form of Trypanosoma cruzi Tulahuen expressing beta-galactosidase infected in mouse NIH/3T3 cells assessed as inhibition of parasite replication after 4 days by betagalactosidase-based luminescence assay; type: functional, organism-based; settings: NIH3T3, 96 h
For each of the molecules below, state its pIC50.
Give only the number. pIC50 is defined as minus log10 of concentration in molar units.

Prompt: # get_value(readout= pIC50, system= Trypanosoma cruzi) for COc1ccc(CN2CCCC(C(=O)N3CCc4ccccc4C3)C2)cc1OC (stereo unspecified)
Response: 5.45

Prompt: Thanks! And CN(Cc1ccccc1)C(=O)C1CCCN(Cc2ccccc2C(F)(F)F)C1 (stereo unspecified) ?
Response: 4.80

Prompt: Thanks! And COc1ccc(CCN(C)C(=O)C2CCCN(Cc3ccccc3)C2)cc1OC (stereo unspecified) ?
Response: 5.85

Prompt: Thanks! And CC(C)Oc1cccc(C(=O)C2CCCN(Cc3cnn(C(C)C)c3)C2)c1 (stereo unspecified) ?
Response: 7.27

Prompt: Thanks! And CCCn1ncc(CN2CCCC(C(=O)c3cccc(OC(C)C)c3)C2)c1C (stereo unspecified) ?
Response: 7.46

Prompt: Thanks! And COc1ccccc1CN1CCCC(C(=O)N(C)Cc2ccccc2)C1 (stereo unspecified) ?
Response: 4.97

Prompt: Thanks! And COc1ccc(C(=O)C2CCCN(CC3CCCCC3)C2)cc1OC (stereo unspecified) ?
Response: 5.80

Prompt: Thanks! And CN(Cc1ccccc1)C(=O)C1CCCN(Cc2ccc([N+](=O)[O-])cc2)C1 (stereo unspecified) ?
Response: 5.12

Prompt: Thanks! And CN(Cc1ccccc1)C(=O)C1CCCN(Cc2cccc(Cl)c2)C1 (stereo unspecified) ?
Response: 6.24

Prompt: Thanks! And COc1ccc(CCN(C)C(=O)C2CCCN(Cc3ccc(F)cc3)C2)cc1OC (stereo unspecified) ?
Response: 5.36

Prompt: Thanks! And CN(Cc1ccccc1)C(=O)C1CCCN(Cc2ccc(Br)cc2)C1 (stereo unspecified) ?
Response: 5.52
